Provide the recorded z-score for the entries that follow.
# experiment_summary: MM1S cell viability effects, profiling panel, calcein-AM fluorescence, 48 h, basal (AID 1165);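 note: viability of MM1S multiple myeloma cells under basal unstimulated conditions; test concentration not given here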
# condition_set: higher = more signal
Keep the answer to the number alone.

[in] Fill in: z-score of `C=C(/C(=C/C[C@@H](OC(C)=O)c1ccc(OCCO)cc1)c1cc(C(=O)OC)ccc1OC)C(C)C` is ___
[out] -1.83

[in] Would you mind doing `O=C1O[C@H](c2ccccc2)[C@H](c2ccccc2)N2[C@H]1[C@@H](C(=O)O)[C@]1(C(=O)Nc3ccc(C#CC4(O)CCCCCC4)cc31)[C@H]2c1ccc(O)cc1` as well?
[out] -0.217

[in] Also `C[C@]1(C(=O)NCCN2CCOCC2)c2ccccc2C(=O)N(Cc2cc(F)cc(C(F)(F)F)c2)[C@H]1c1ccc(CO)cc1` , if possible.
[out] -0.89

[in] Can you handle CCC(CC)C(O)C1C=CC2C(=O)N(c3ccccc3)C(=O)C2N1Nc1ccc([N+](=O)[O-])cc1 (stereo not drawn) next?
[out] 0.486

[in] Also check CC1CC/C=C\[C@H]2OC34C=CCN(C(C)(C)C)C(=O)[C@H]3N(C(CO)C(C)C)C(=O)[C@@H]4C2C(=O)O1 (stereo partly drawn)
[out] 1.61

[in] Try this compound next: `COCCOC(=O)N1C(=O)[C@@]2(c3cc(C#CC4(O)CCCCCC4)ccc31)[C@H](C(=O)N1CCN(c3ncccn3)CC1)[C@H]1C(=O)O[C@H](c3ccccc3)[C@H](c3ccccc3)N1[C@@H]2c1ccccc1OCCO`
[out] -0.483

[in] Another compound: `COCCOC(=O)N1C(=O)[C@@]2(c3cc(C#CCCO)ccc31)[C@H](C(N)=O)[C@H]1C(=O)O[C@H](c3ccccc3)[C@H](c3ccccc3)N1[C@@H]2c1ccc(OCCO)cc1`
[out] -0.971

[in] One more compound: `CO[C@H]1O[C@H](CO)[C@@H](OC(=O)Nc2cccc(F)c2)[C@H](OC(=O)Nc2ccccc2-c2ccccc2)[C@H]1OC(=O)Nc1ccccc1-c1ccccc1`
[out] -3.44

[in] How about CN1C(=O)C2C(C1=O)C1C=C(CCCO)C2C(C2CC2)N1Cc1cc2c(cc1Br)OCO2 (stereo not drawn) ?
[out] -0.172

[in] Same lookup for `C=C(COC)C(=O)CC[C@H](OC(=O)c1cccnc1)c1ccc(CO)o1` , please.
[out] -0.401

[in] Repeat with CS(=O)(=O)CCOC(=O)C1=CC(CCCO)=CC(C2CC2)N(Cc2cccc(OC(F)(F)F)c2)C=C1C(=O)OCCS(C)(=O)=O (stereo not drawn)
[out] -2.98

[in] Next compound: `COCCOC(=O)N1C(=O)[C@@]2(c3cc(C#Cc4ccc(OC)cc4)ccc31)[C@H](c1ccc(OCCO)cc1)N1[C@H](c3ccccc3)[C@H](c3ccccc3)OC(=O)[C@H]1[C@@H]2C(=O)Nc1nc2ccccc2s1`
[out] -0.569

[in] Let us now turn to `[N-]=[N+]=NCc1ccccc1[C@H]1OC(c2ccc(OCCCO)cc2)=N[C@@]1(CCS(=O)(=O)c1ccccc1)C(=O)NCc1ccccc1`
[out] -0.65
